These measurements were taken from patent US5643784A.

- assay-target: α1 adrenoceptors
- protocol-details: Inhibition of 3H-prazosin binding to α1 adrenoceptors in rat brain in vitro
- details: 3H-Prazosin 0.25 nM, rat brain, 25° C., 20 min; read-out: Receptor Binding; IC50 α1 3H-Praz
For each entry below, report its IC50 value.
Unit nM implied. Number only.

Reported IC50 for CSc1ccc2c(c1)[C@H](c1ccc(F)cc1)C[C@H]2N1CCN(CCN2CCN(C(C)C)C2=O)CC1 (relative stereo) : what is it?
250

Reported IC50 for O=C1OCCN1CCN1CCN([C@H]2C[C@H](c3ccc(F)cc3)c3cc(Cl)ccc32)CC1 (relative stereo) : what is it?
140

Reported IC50 for O=C1NCCN1CCN1CCN([C@H]2C[C@H](c3ccc(F)cc3)c3cc(C(F)(F)F)ccc32)CC1 (relative stereo) [Compound 1] : what is it?
320

Reported IC50 for OCCN1CCN([C@H]2C[C@H](c3ccc(F)cc3)c3cc(Cl)ccc32)CC1 (single isomer, unassigned) [(+)-3] : what is it?
2500

Reported IC50 for Fc1ccc([C@@H]2C[C@@H](N3CCN(CCN4CCCC4=S)CC3)c3ccc(Cl)cc32)cc1 (relative stereo) : what is it?
260

Reported IC50 for O=C1NCCCN1CCN1CCN([C@@H]2C[C@@H](c3ccc(F)cc3)c3cc(F)ccc32)CC1 (single isomer, unassigned) [(+)-33] : what is it?
41

Reported IC50 for Fc1ccc([C@@H]2C[C@@H](N3CCN(CCN4CCNC4=S)CC3)c3ccc(Cl)cc32)cc1 (relative stereo) : what is it?
52

Reported IC50 for OCCN1CCN([C@@H]2C[C@@H](c3ccc(F)cc3)c3cc(Cl)ccc32)CC1 (relative stereo) : what is it?
230

Reported IC50 for OCCN1CCN([C@H]2C[C@H](c3ccc(F)cc3)c3cc(F)ccc32)CC1 (relative stereo) [Compound 2] : what is it?
150

Reported IC50 for Cc1ccc([C@@H]2C[C@@H](N3CCN(CCN4CCN(C(C)C)C4=O)CC3)c3ccc(Cl)cc32)cc1 (relative stereo) : what is it?
60

Reported IC50 for OCCN1CCN([C@@H]2C[C@@H](c3ccc(F)cc3)c3cc(C(F)(F)F)ccc32)CC1 (relative stereo) : what is it?
380

Reported IC50 for CC(C)N1CCN(CCN2CCN([C@@H]3C[C@@H](c4ccc(Cl)cc4)c4cc(Cl)ccc43)CC2)C1=O (relative stereo) : what is it?
180

Reported IC50 for OCCN1CCN([C@@H]2C[C@@H](c3ccc(F)cc3)c3ccc(C(F)(F)F)cc32)CC1 (racemic) [Tefludazine, reference compound] : what is it?
17

Reported IC50 for CC(C)N1CCN(CCN2CCN([C@@H]3C[C@@H](c4ccc(F)cc4)c4cc(Cl)ccc43)CC2)C1=S (relative stereo) : what is it?
69

Reported IC50 for O=C1NCCN1CCN1CCN([C@@H]2C[C@@H](c3ccc(F)cc3)c3ccccc32)CC1 [Irindalon, reference compound] : what is it?
16

Reported IC50 for Fc1ccc([C@@H]2C[C@@H](N3CCN(CCN4CCCNC4=S)CC3)c3ccc(Cl)cc32)cc1 (single isomer, unassigned) [(-)-32] : what is it?
67

Reported IC50 for Cc1cc([C@@H]2C[C@@H](N3CCN(CCO)CC3)c3ccc(Cl)cc32)cs1 (relative stereo) : what is it?
1000

Reported IC50 for CC(C)N1CCN(CCN2CCN([C@@H]3C[C@@H](c4cccc(F)c4)c4cc(Cl)ccc43)CC2)C1=O (relative stereo) : what is it?
970

Reported IC50 for CC(C)N1CCN(CCN2CCN([C@@H]3C[C@@H](c4ccc(F)cc4)c4cc(Cl)ccc43)CC2)C1=O (relative stereo) [Compound 11] : what is it?
260

Reported IC50 for Fc1ccc([C@@H]2C[C@@H](N3CCN(CCN4CCCNC4=S)CC3)c3ccc(Cl)cc32)cc1 (single isomer, unassigned) [(+)-32] : what is it?
350

Reported IC50 for Cc1ccc2c(c1)[C@H](N1CCN(CCN3CCNC3=O)CC1)C[C@H]2c1ccc(F)cc1 (relative stereo) [Compound 40, reference compound] : what is it?
12

Reported IC50 for CC(C)N1CCN(CCN2CCN([C@@H]3C[C@@H](c4ccc(F)cc4)c4cc(Br)ccc43)CC2)C1=O (relative stereo) : what is it?
270

Reported IC50 for O=C1N(CCN2CCN([C@@H]3C[C@@H](c4ccc(F)cc4)c4cc(Cl)ccc43)CC2)CCN1c1ccccc1 (relative stereo) : what is it?
310

Reported IC50 for O=C1NCCN1CCN1CCN([C@@H]2C[C@@H](c3ccc(F)cc3)c3cc(Cl)ccc32)CC1 (relative stereo) : what is it?
200

Reported IC50 for O=C1N(CCO)CCN1CCN1CCN([C@@H]2C[C@@H](c3ccc(F)cc3)c3cc(Cl)ccc32)CC1 (relative stereo) : what is it?
710

* * *

quantity-kind: pIC50
Convention used: pIC50 is expressed as -log10 of the molar concentration.

For the record CC(C)N1CCN(CCN2CCN([C@@H]3C[C@@H](c4ccccc4)c4cc(Cl)ccc43)CC2)C1=O (relative stereo) , what value of pIC50 is listed for UniProt P14842?
8.00

For the record Cc1ccc2c(c1)[C@H](c1ccc(F)cc1)C[C@H]2N1CCN(CCN2CCNC2=O)CC1 (relative stereo) , what value of pIC50 is listed for UniProt P14842?
8.43

For the record OCCN1CCN([C@H]2C[C@H](c3ccc(F)cc3)c3cc(F)ccc32)CC1 (relative stereo) [Compound 2] , what value of pIC50 is listed for UniProt P14842?
7.68

For the record Fc1ccc([C@@H]2C[C@@H](N3CCNCC3)c3ccc(Cl)cc32)cc1 (relative stereo) , what value of pIC50 is listed for UniProt P14842?
7.96

* * *

- assay-target: α1 adrenoceptors
- protocol-details: Inhibition of 3H-prazosin binding to α1 adrenoceptors in rat brain in vitro
- details: 3H-Prazosin 0.25 nM, rat brain, 25° C., 20 min; read-out: Receptor Binding; IC50 α1 3H-Praz
For each entry below, report its IC50 value.
Unit nM implied. Number only.

Reported IC50 for Cc1nc2sccn2c(=O)c1CCN1CCC(=C(c2ccc(F)cc2)c2ccc(F)cc2)CC1 [Ritanserin, reference compound] : what is it?
47

Reported IC50 for Fc1ccc([C@@H]2C[C@@H](N3CCN(CCN4CCCNC4=S)CC3)c3ccc(F)cc32)cc1 (relative stereo) [Compound 30] : what is it?
110

Reported IC50 for CC1(C)CNC(=O)N(CCN2CCN([C@@H]3C[C@@H](c4ccc(F)cc4)c4cc(Cl)ccc43)CC2)C1 (single isomer, unassigned) : what is it?
120
